All values here come from ChEMBL document CHEMBL1157539.

Test system: Plasmodium falciparum
Experiment: GSK_TCMDC: Inhibition of Plasmodium falciparum 3D7 in whole red blood cells, using parasite LDH activity as an index of growth. Test compounds present at 2uM
Format: functional
Would you kindly list Inhibition for each of these compounds?
Give bare numbers, in %.

# annotated cases, reported Inhibition shown
| Compound | Result units | Inhibition |
| --- | --- | --- |
| CN1CCN(CCCN(Cc2ccc(-c3ccc(CNCc4ccc5c(c4)OCO5)cc3)cc2)C(=O)CCC2CCCC2)CC1.O=C(O)C(F)(F)F | % | 99 |
| CN(C)c1ccc(CN2CCCCC(NC(=O)c3cc(-c4ccccc4F)cs3)C2)cc1.O=C(O)C(F)(F)F (centres undefined) | % | 100 |
| Br.CCCC1N=C(N)N=C(N)N1c1ccc(CC)cc1 (centres undefined) | % | 94 |
| O=C(/C=C/c1ccc(Cl)c(Cl)c1)NCCCCCN1CCC(NC(=O)Nc2cccc(Cl)c2Cl)CC1 | % | 100 |
| Cl.O=C(Nc1cccc2ccccc12)N1CCc2cc3nccc(N4CCN5CCC[C@H]5C4)c3cc21 | % | 99 |
| O=C(Cn1c(SCc2cccc(F)c2F)cc(=O)c2ccccc21)N(CCN1CCCCC1)Cc1ccc(-c2ccc(C(F)(F)F)cc2)cc1.O=C(O)C(O)C(O)C(=O)O | % | 99 |
| Brc1ccc(Nc2ccnc3cc(-c4nccs4)ccc23)cc1Oc1ccnc2cc(-c3nccs3)ccc12 | % | 91 |
| CN1CCCN(Cc2cccc(-c3cccc(NC(=O)c4cccc(C#N)c4)c3)c2)CC1.O=C(O)C(F)(F)F | % | 95 |

List reported Inhibition for each of these compounds:
1. O=c1cc(NCCC(CNCCc2ccccc2)NCc2cc(Br)cc(Br)c2)[nH]c2ccccc12 (centres undefined)
2. CN1CCN(Cc2ccc(-c3cccc(-c4nc5ccccc5[nH]4)c3)cc2)CC1.O=C(O)C(F)(F)F

Response:
[98, 93]

----------
System: Plasmodium falciparum
Experiment: GSK_TCMDC: Inhibition of Plasmodium falciparum 3D7 in whole red blood cells, using parasite LDH activity as an index of growth. Test compounds present at 2uM
Assay type: functional
Endpoint name: Inhibition

A selection of reference data follows.
| Compound | Inhibition |
| --- | --- |
| CN(C)CCOc1cc(NC(=O)Nc2cccc3c(-c4ccncc4)cccc23)ccc1I.Cl | 100% |
| CCn1cc(CN2C(=O)C(c3ccccc3)(c3ccccc3)N=C2N)cn1.O=CO | 95% |
| COc1cc(NC(=O)c2ccc(-c3ccc(C(C)=O)cc3)s2)ccc1OCCN1CCCC1 | 100% |

Please give Inhibition, item by item, for the list that follows.
1. C=CCN(c1nc(NC)nc(NCc2c(OC)cccc2OC)n1)C1CCCC1
2. Br.CCCCCCCCc1c(C)nc(C)c(Br)c1O
3. Nc1n[nH]c(-c2ccccc2Nc2ccnc3cc(-c4nccs4)ccc23)n1

Response:
["85%", "96%", "100%"]

Answer for every listed entry: what is its Inhibition? The entries follow.
1. CS(=O)(=O)c1ccc(CCNCc2ccc(-c3cccc(-c4nc5ccccc5[nH]4)c3)cc2)cc1.O=C(O)C(F)(F)F
2. O=C(O)C(F)(F)F.O=S(=O)(NCCN1CCCC1)c1cccc(-c2ccc(CNCc3ccsc3)cc2)c1
3. Cn1c2c(c3ccccc31)CN(CCC1(c3ccc(Cl)c(Cl)c3)CN(C(=O)Cc3ccccc3)CCO1)CC2 (centres undefined)

Response:
1: 100%; 2: 100%; 3: 95%

----------
System: HepG2
Assay: GSK_TCMDC: Percent inhibition of human HepG2 cell line. Test compounds present at 10uM.
Format: functional
Endpoint name: Inhibition (%)
One number for each entry, in %.

Examples with answers:
| Chemical string | Result units | Inhibition |
| --- | --- | --- |
| CC[C@H](C)CNC(=O)c1ccnc(-c2cccc(CN(C)C3CCN(C)CC3)c2)c1.O=C(O)C(F)(F)F | % | 0 |
| CC(C)N1CCC(N(Cc2ccc(-c3ccc(C(F)(F)F)cc3)cc2)C(=O)Cn2c(SCc3cccc(F)c3F)nc(=O)c3ccccc32)CC1.O=C(O)C(O)C(O)C(=O)O | % | 74 |
| Cc1ccc(Nc2nc(N/N=C/c3cc4c(cc3Br)OCO4)nc(Nc3ccc([N+](=O)[O-])cc3)n2)cc1C | % | 23 |

Now let's try a different one.
Query: Using known records, supply Inhibition for `O=C(NCCCCN1CC=C(c2ccc3c(c2OCc2ccccc2)CCCC3)CC1)c1ccc(-c2ccc(C(F)(F)F)cc2)cc1`
Response: 19

----------
System: Plasmodium falciparum
Test: GSK_TCMDC: Inhibition of Plasmodium falciparum Dd2 in whole red blood cells, using parasite LDH activity as an index of growth. Test compounds present at 2uM
Format: functional
So I've got a bunch of compounds here, and I need their Inhibition values.
Answers are plain numbers, in %.

Known results for compounds:
| Compound | Endpoint name | Result units | Reading |
| --- | --- | --- | --- |
| CC(C)(C)c1ccc(O)c(CNC2CCCCC2)c1.Cl | Inhibition | % | 98 |
| COc1ccccc1C1CCN(C2CCC(NC(=O)c3cc4ccccc4[nH]3)CC2)CC1 (stereo not drawn) | Inhibition | % | 7 |
| Cc1[nH]c(/C=C2\C(=O)Nc3ccc(S(=O)(=O)Cc4c(Cl)cccc4Cl)cc32)c(C)c1C(=O)N1CCC[C@@H]1CN1CCCC1 | Inhibition | % | 92 |
| CC(C)c1ccc(CN2CCC(NC(=O)c3ccc(-c4cccc(F)c4)s3)CC2)cc1.O=C(O)C(F)(F)F | Inhibition | % | 12 |
| CCOC(=O)c1[nH]c2cc(Cl)cc(Cl)c2c1/C=C/C(=O)Nc1ccc(-c2cnc(NC(C)=O)[nH]2)cc1 | Inhibition | % | 65 |
| CC(C)(C)NS(=O)(=O)c1cc(C(=O)N2CCC(CCN3CCC(O)(c4cccc(C(F)(F)F)c4)CC3)(c3cccc(F)c3)CC2)c(Cl)cc1F | Inhibition | % | 55 |

Quick request: Inhibition for each listed item, please.
1. O=C(O)C(F)(F)F.c1cc(CNC2CCN(CC3CCCCC3)CC2)cc(-n2ccnc2)c1
2. C[C@H]1CN(Cc2cccc(-c3cc(CNC(=O)c4cccc(CN5CCN(CCOc6ccccc6)CC5)c4)ccc3F)c2)CCN1.O=C(O)C(F)(F)F

Response:
1: 97; 2: 88

----------
Exercise: for every item that follows, state its recorded Inhibition.
Tested on: HepG2
Assay: GSK_TCMDC: Percent inhibition of human HepG2 cell line. Test compounds present at 10uM.
Format: functional
Quick note: number first, unit second.

A selection of reference data follows.
| Compound | Inhibition |
| --- | --- |
| O=C(Nc1ccc(C(F)(F)F)cc1)c1cccc(S(=O)(=O)NCC2CCCN(CC3CCCCC3)C2)c1.O=C(O)C(F)(F)F (stereo not given) | 27% |
| O=C(Nc1cccc(C(F)(F)F)c1)c1ccc(S(=O)(=O)NC2CCN(CC3CCCCC3)CC2)cc1.O=C(O)C(F)(F)F | 25% |
| COc1cc2nc(N(C)C)nc(Nc3ccc(OCc4ccccc4)cc3)c2cc1OC | 91% |

Provide Inhibition values for the following items, in order.
1. CN(C)CCNC(=O)c1ccc(-c2ccc3c(Nc4ccccc4)c(C(N)=O)cnc3c2)cc1
2. COCCn1ccc2c3c(N)nc(N)nc3ccc21

Response:
1. 9%
2. 43%

----------
Test system: HepG2
Test: GSK_TCMDC: Percent inhibition of human HepG2 cell line. Test compounds present at 10uM.
Format: functional
# Inhibition >= 10% gives 1, anything below gives 0

Field: example entries. Status: answers known.
| Compound | Tested system | Assigned class |
| --- | --- | --- |
| Cc1cccc2nc(-c3cccc(-c4cccc(NC(=O)c5cnccc5C(F)(F)F)c4)c3)[nH]c12 | HepG2 | 0 |
| COCCn1c(C)nc2ccccc2c1=O | HepG2 | 0 |

Query: # check: Inhibition of `CN1CCC(N2CCN(CCOc3cc(NC(=O)/C=C/c4ccccc4Cl)ccc3Br)CC2)CC1.O=C(O)C(=O)O` is greater than or equal to 10%
Response: 1

Query: Could you tell me if the measured Inhibition of O=C(c1ccc(-c2ccc(-c3nc4ccccc4[nH]3)s2)cc1)N1CCCCC1CN1CCC(O)C1 (stereo not given) reaches 10% or more?
Response: 1

Query: Is Inhibition for `Cc1cccc(CN2CCN(c3ncc(C(=O)NC4CC4)cc3Cl)CC2)c1.O=C(O)C(F)(F)F` at or above 10%?
Response: 0

Query: Given `O=C(/C=C/c1ccc(Cl)c(Cl)c1)NCCCCCN1CCCN(C(=O)Nc2ccc(Br)cc2)CC1` , state whether its Inhibition is at least 10%.
Response: 1

Query: Identify whether the reported Inhibition of the following compound is 10% or greater: CN1CCN(C(C(=O)NCc2cc(Cl)cc(Cl)c2)c2ccccc2-c2ccsc2)CC1 (stereo not given)
Response: 1

Query: Has CCN(CC)S(=O)(=O)c1ccc(C(C)NC(=O)c2ccccc2COc2ccccc2)cc1 (stereo not given) a recorded Inhibition greater than or equal to 10%?
Response: 0

Query: Does Inhibition meet or surpass 10% for `Cc1nc(Nc2ccc(C)c(Cl)c2)c2c(C)noc2n1` ?
Response: 0

Query: Hello, I need to know if `COc1cc(CCOc2c(C)nc(N)nc2N)cc(OC)c1OC.Cl` has measured Inhibition not below 10%. Thanks!
Response: 1
